System: SK-OV-3
Assay: NCI tumour cell line growth inhibition, 48 h
Activity calls are given as the source filed them. Rule as the data show it: active = GI50 up to about 1.1 µM and inactive = higher.
Item-by-item account of GI50
quantity.measured: GI50

>>> measured("COC(C)(C)C(O)C(O)C[C@H](C)C1CC=C2C1(C)CCC1[C@@]3(C)CCC(OC(C)=O)C(C)(C)C3CC(OC3OC(COC(C)=O)C(O)C(O)C3O)[C@@]21C (stereo partly specified)")
"> 10 µM (inactive)"
>>> measured("CCCCC1(N=[N+]=[N-])C(=O)c2cccc3c2N(CCC3)C1=O (stereo unspecified)")
"> 100 µM (inactive)"
>>> measured("COc1ccc(/C=C/C(=O)c2c(-c3ccccc3)nn(C)c(=O)c2N2CC2C)cc1 (stereo unspecified)")
"30.2 µM (inactive)"
>>> measured("COc1ccc(/C=C2\\N=C3NC(=O)C(N4CCCCC4)=C(N)N3C2=O)cc1")
"> 100 µM (inactive)"
>>> measured("CCCCc1ccc(Nc2nc(Cl)c3c(ncn3COCCOC(C)=O)n2)cc1")
"17.1 µM (inactive)"
>>> measured("Cc1[nH]c2ncn(/N=C/c3ccccc3O)c(=N)c2c1Cc1ccccc1")
"> 100 µM (inactive)"

* * *

Tested on: UACC-257
Test: NCI tumour cell line growth inhibition, 48 h
Active and inactive are the calls of the source. Rule as the data show it: active = GI50 up to about 1.1 µM and inactive = higher.
quantity.measured: GI50

>>> measured("c1ccc2c(c1)Oc1cccc3cccc-2c13")
"> 100 µM (inactive)"
>>> measured("CCOC(=O)c1[nH]c(-c2[nH]c(-c3[nH]c(-c4[nH]c(C(=O)OCC)c(C)c4C(=O)OCC)c(C(=O)OCC)c3C)c(C)c2C(=O)OCC)c(C(=O)OCC)c1C")
"> 100 µM (inactive)"
>>> measured("C=C(C)[C@@]1(O)CCCC[C@@H]1CC(Sc1ccccc1)Sc1ccccc1")
"20.2 µM (inactive)"
>>> measured("COc1cc(C=O)cc(/C=N/N=C/c2ccccc2O)c1O")
"32.9 µM (inactive)"
>>> measured("CCN1CCC(O)(/C=C/c2ccc(C)cc2)C(C(=O)/C=C/c2ccc(C)cc2)C1 (stereo not given)")
"12.5 µM (inactive)"

* * *

System: UO-31
Experiment: NCI tumour cell line growth inhibition, 48 h
Calls of active or inactive are those of the source. No stated cut-off is given here; in the data, active = GI50 up to about 1.1 µM and inactive = higher.
quantity.measured: GI50

>>> measured("COc1ccc(C2S/C(=C\\c3cc(OC)c(OC)c(OC)c3)C(=O)N2NC(=O)Cc2ccccc2)cc1 (stereo unspecified)")
"48 µM (inactive)"
>>> measured("CC(Oc1cc2oc(=O)cc(-c3ccccc3)c2cc1Cl)C(=O)O (stereo unspecified)")
"> 100 µM (inactive)"
>>> measured("COc1cc(C=O)cc(/C=N/N=C/c2ccccc2O)c1O")
"24.6 µM (inactive)"
>>> measured("CCOC(=O)c1sc2c(c1OC(=O)c1cccs1)c(=O)n(-c1ccccc1)c(=S)n2-c1ccccc1")
"0.175 µM (active)"
>>> measured("COc1ccccc1C(=O)NCC1CCCN2CCCCC12 (stereo unspecified)")
"> 100 µM (inactive)"
>>> measured("CCN(CC)CCCNc1nccc2c(C)c3c(cc12)c1cnccc1n3C")
"0.748 µM (active)"
>>> measured("OCCCCn1cc(Cn2ncc3c(O)ncnc32)nn1")
"> 100 µM (inactive)"
>>> measured("Cc1ccc(/C(C#N)=C/c2cccc([N+](=O)[O-])c2)cc1")
"45.3 µM (inactive)"
>>> measured("COc1ccc(/C=C(/C)[N+](=O)[O-])cc1")
"1.67 µM (inactive)"
>>> measured("CC1C(c2ccc3c(c2)OCO3)c2cc3c(cc2OC1N1CCCC1)OCO3 (stereo unspecified)")
"17.2 µM (inactive)"
>>> measured("O=C1CSC(c2cccc(Oc3ccccc3)c2)N1c1cc(Cl)ccc1Cl (stereo unspecified)")
"23.3 µM (inactive)"
>>> measured("COc1ccc(Oc2nc3ccc(C(F)(F)F)cc3nc2-c2ccccc2)cc1")
"1.57 µM (inactive)"
>>> measured("Cc1nnc(Nc2ccc(Cl)cc2)o1")
"> 10 µM (inactive)"
>>> measured("NC(=O)C(=CNC(N)=S)C(N)=O")
"60 µM (inactive)"
>>> measured("O=C(NC12CC3CC(CC(C3)C1)C2)C(=O)c1c[nH]c2ccc(Cl)cc12")
"66.4 µM (inactive)"
>>> measured("c1ccc([P+](CC[P+](c2ccccc2)(c2ccccc2)c2ccccc2)(c2ccccc2)c2ccccc2)cc1")
"> 46.1 µM (inactive)"
